assay_system: Lysine-specific demethylase 5B (Homo sapiens) (UniProt Q9UGL1)
Sequence (Q9UGL1 whole entry, looked up): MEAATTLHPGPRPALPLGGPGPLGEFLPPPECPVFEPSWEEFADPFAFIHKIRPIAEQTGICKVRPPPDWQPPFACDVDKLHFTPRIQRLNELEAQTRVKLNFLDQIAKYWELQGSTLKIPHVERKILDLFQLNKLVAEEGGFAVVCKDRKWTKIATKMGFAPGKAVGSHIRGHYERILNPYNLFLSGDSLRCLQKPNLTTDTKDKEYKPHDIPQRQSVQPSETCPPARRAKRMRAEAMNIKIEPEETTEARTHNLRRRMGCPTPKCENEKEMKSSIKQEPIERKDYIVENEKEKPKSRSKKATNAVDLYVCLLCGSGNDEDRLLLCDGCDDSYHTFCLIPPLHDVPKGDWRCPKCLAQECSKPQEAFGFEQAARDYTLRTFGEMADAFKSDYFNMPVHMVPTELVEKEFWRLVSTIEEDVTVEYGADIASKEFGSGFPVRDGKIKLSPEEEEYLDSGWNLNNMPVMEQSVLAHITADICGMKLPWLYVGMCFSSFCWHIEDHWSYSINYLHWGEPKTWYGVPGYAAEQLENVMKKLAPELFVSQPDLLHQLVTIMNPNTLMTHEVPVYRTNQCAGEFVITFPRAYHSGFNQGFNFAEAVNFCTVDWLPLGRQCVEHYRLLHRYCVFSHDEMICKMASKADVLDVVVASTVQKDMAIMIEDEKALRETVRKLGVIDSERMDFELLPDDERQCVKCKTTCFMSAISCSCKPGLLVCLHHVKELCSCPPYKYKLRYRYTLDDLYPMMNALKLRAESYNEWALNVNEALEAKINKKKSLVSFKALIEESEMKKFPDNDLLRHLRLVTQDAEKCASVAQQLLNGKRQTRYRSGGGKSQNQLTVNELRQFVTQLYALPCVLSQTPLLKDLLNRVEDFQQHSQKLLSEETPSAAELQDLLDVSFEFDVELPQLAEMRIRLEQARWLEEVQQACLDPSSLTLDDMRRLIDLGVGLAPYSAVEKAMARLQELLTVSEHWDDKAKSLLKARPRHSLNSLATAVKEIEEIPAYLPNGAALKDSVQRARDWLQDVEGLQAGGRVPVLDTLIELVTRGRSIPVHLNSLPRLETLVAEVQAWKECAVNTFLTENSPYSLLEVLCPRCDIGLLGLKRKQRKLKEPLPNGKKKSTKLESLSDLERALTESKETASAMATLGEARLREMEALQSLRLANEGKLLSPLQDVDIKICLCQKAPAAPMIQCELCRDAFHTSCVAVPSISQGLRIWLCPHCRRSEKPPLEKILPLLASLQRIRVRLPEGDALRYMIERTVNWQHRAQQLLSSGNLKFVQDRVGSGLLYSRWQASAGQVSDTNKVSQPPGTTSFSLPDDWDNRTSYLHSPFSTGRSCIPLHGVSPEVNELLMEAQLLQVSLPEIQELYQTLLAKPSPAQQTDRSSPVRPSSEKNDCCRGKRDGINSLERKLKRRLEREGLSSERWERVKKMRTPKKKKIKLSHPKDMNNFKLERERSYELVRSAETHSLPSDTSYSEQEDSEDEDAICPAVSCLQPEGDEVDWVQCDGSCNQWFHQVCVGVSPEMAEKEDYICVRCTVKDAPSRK
experimental_details: Primary screen for KDM5B Histone Demethylases FDH-coupled qHTS; note: nearly all actives have a fitted effect of over 70% in size
setup_conditions: FDH-coupled NADH fluorescence (FDH is formaldehyde dehydrogenase); series mostly up to 57.7 µM
In all, about 220,000 compounds went through this assay and about 5,700 (2.6%) were called active. Roughly 18% stayed inconclusive and do not appear here. Calls come from the whole dose curve; as a rule, active = well fitted inhibition curve with a large enough effect; inconclusive = small, poorly fitted or top-dose-only effect; inactive = no such curve, though single readings can be large or run the other way. Shown is part of a subset that was picked to be rich in actives.
Outcome codes: active, inactive

>>> df
                                    molecule  group_label
 0       CCN(c1ccc(NC(=O)c2nccnc2N)cc1)C(C)C     inactive
 1  COc1ccc(C2=NC(c3ccncc3)=Nc3ccc(Br)cc3N2)cc1     inactive
 2   Cc1ccc(-c2nc(C(=O)N(C)Cc3ccccc3)no2)cc1     inactive
 3  O=C(O)C(c1c[nH]c2ccc(Cl)cc12)N1CCCN(c2ccc(C(F)(F)F)cn2)CC1 (centres undefined)     inactive
 4  Cc1ccccc1C(=O)N1CCN(c2ccc([N+](=O)[O-])c(-n3nc(C)c4ccccc4c3=O)c2)CC1     inactive
 5             CC(C)NC(=S)N/N=C1\CCc2ccccc21     inactive
 6  CN(C)c1ccc(C(=O)NCc2nnc3cc(-c4nc(C5CC5)no4)ccn23)cc1     inactive
 7  Cn1c(=O)c2c(nc(SCC(=O)Nc3ccccc3)n2Cc2ccccc2Cl)n(C)c1=O     inactive
 8                 Cc1ccc(NC(=O)c2ccoc2)cc1I     inactive
 9   N#Cc1c(N)n[nH]c1CCCNc1ncnc2c1oc1ccccc12     inactive
10  COc1cccc(C(=O)Oc2ccc(C3(c4ccc(OC(=O)c5cccc(OC)c5)cc4)OC(=O)c4ccccc43)cc2)c1     inactive
11      O=C(NCCc1c[nH]c2ccc(Cl)cc12)c1ccccc1     inactive
12  CCS(=O)(=O)N1CCC(NS(=O)(=O)c2ccsc2C(=O)OC)CC1     inactive
13  N#Cc1cccc(NC(=O)CSc2ccccc2C(=O)Nc2ccc3c(c2)OCCCO3)c1     inactive
14          CC(C)(C)C(=O)NCCCC(=O)NCCc1cccs1     inactive
15  CCC(=O)Nc1cc(C(=O)NCc2ccc(N3CCOCC3)cc2)c2ccc(C)nc2c1       active
16  COc1ccc(S(=O)(=O)NCCc2noc(-c3ccncc3)n2)cc1     inactive
17  Cc1cc(=O)oc2cc(OCC(=O)NCC(C)(c3ccccc3)c3ccccc3)ccc12     inactive
18      COC(=O)c1ccc(OCc2cccc(C#N)c2)c(OC)c1     inactive
19  CCCC(=O)Nc1ccc2c(c1)nc(CCNC(=O)c1ccco1)n2C     inactive
20  CCc1noc(-c2ccn3c(CNC(=O)c4ccco4)nnc3c2)n1       active
21  Cc1ccc(C2=NC3(CCN(C(=O)c4ccc(C#N)cc4)CC3)ON2)cc1     inactive
22        Cc1nnc(CSc2nnc(Nc3cccc(C)c3C)s2)o1     inactive
23      COc1ccc2nc(SCC(=O)Nc3ncccn3)[nH]c2c1     inactive
24  CC1(C)C/C(=N/Nc2ccc([N+](=O)[O-])cc2[N+](=O)[O-])C(C)(C)O1     inactive
25  CCCCCCCCNS(=O)(=O)/C=C/c1cc(C)ccc1CNC(=O)OC(C)(C)C     inactive
26                     CCC(=O)Nc1ccc(Cl)cc1C     inactive
27   COc1ccc(CNC(=O)c2ccc3oc(C(C)C)nc3c2)cc1     inactive
28  Cc1noc(-c2ccccc2NC(=O)C2CC(=O)N(c3cccc(C(F)(F)F)c3)C2)n1 (centres undefined)     inactive
29  O=C(c1ccccc1F)N1CCN(C(=O)c2c[nH]c3ccccc23)CC1     inactive
30  COCc1cc(=O)n(CC(=O)NCc2ccc(C)cc2)c(N2CCOCC2)n1     inactive
31  COCC(=O)N1CCN(C2CCN(CCc3ccccc3)C2=O)CC1 (centres undefined)     inactive
32  Cc1cccc(C(C)C)c1NC(=O)CSc1nnc(-c2cc(-c3ccccc3)n[nH]2)n1N     inactive
33        O=C(O)c1ccc2oc(-c3cccc(Cl)c3)nc2c1     inactive
34  O=C(c1ccc2[nH]ccc2c1)N1CCC(N2CC(OCC3CC3)C23CCOCC3)CC1 (centres undefined)     inactive
35   CCCNC(=O)N1CC(Oc2ccc(-c3nc(C)no3)cc2)C1     inactive
36  COC(=O)[C@@H](NC(=O)Nc1cc(-c2n[nH]c(=O)c3ccccc23)ccc1C)C(C)C     inactive
37  CC(C)NC(=O)C1CCc2nnc(CNC(=O)c3ccc(Cl)cc3Cl)n21 (centres undefined)     inactive
38           O=C(NCCc1noc(-c2ccccc2)n1)C1CC1     inactive
39  CC(C)Cn1cncc1CNC(=O)c1ccc2nc(-c3ccc(F)cc3)cn2c1       active
40  O=C(c1cccc2[nH]ccc12)N1CCC2(CC1)N=C(c1cccc(Br)c1)NO2       active
41  O=C(COc1ccccc1)N1CC2(C1)CN(Cc1ccc(Cl)cc1)C(=O)O2     inactive
42  NC(=O)c1ccc(NC(=O)CCc2ncc(-c3ccc(F)cc3)o2)cc1     inactive
43  CC(C)(C)c1cc(NC(=O)Nc2cc(Cl)cc(Cl)c2)no1     inactive

Sourced from PubChem BioAssay AID1347165
